meta.source: paper PMC4774972

# Test system: K. pneumoniae CI 138-16357-20362, PmxR
# TEST NAME: microbe, parasite or virus in culture
# Assay type: cell-based, Klebsiella pneumoniae
# CONDITION: carbapenem & polymyxin resistant clinical isolate; MHB, 5 × 10^5 CFU/mL, 18 h at 37 °C
Bridge positions count the residues as written; N and C are the ends. Square brackets hold non-standard residues; d marks the D form. Peptide text beside a SMILES is read from it. * marks the point of attachment. dDab = NCC[C@@H](N)C(=O)O; Octanoyl = CCCCCCCC(=O)*; Dab = NCC[C@H](N)C(=O)O
ENDPOINT LABEL: MIC K. pneumoniae CI 138-16357-20362, PmxR

CCCCCCCC(=O)N[C@H](CCN)C(=O)N[C@H](C(=O)NCC(=O)N[C@H]1CCNC(=O)[C@H]([C@@H](C)O)NC(=O)[C@H](CCN)NC(=O)[C@H](CCN)NC(=O)[C@H](CC(C)C)NC(=O)[C@@H](Cc2ccccc2)NC(=O)[C@H](CCN)NC1=O)[C@@H](C)O [Compound 40] (Octanoyl-[dDab]TG[Dab][Dab][dF]L[Dab][Dab]T; lactam 4-C) : >32 µg/mL
CCCCCCCC(=O)N[C@@H](CCN)C(=O)N[C@H](C(=O)N[C@@H](CCN)C(=O)N[C@H]1CCNC(=O)[C@H]([C@@H](C)O)NC(=O)[C@H](CCN)NC(=O)[C@H](Cc2ccc(N)cc2)NC(=O)[C@H](CC(C)C)NC(=O)[C@@H](Cc2ccccc2)NC(=O)[C@H](CCN)NC1=O)[C@@H](C)O : >32 µg/mL

QUERY: Could you tell me which MIC K. pneumoniae CI 138-16357-20362, PmxR is on file for CCCCCCCC(=O)N[C@@H](CCN)C(=O)N[C@H](C(=O)N[C@H](CO)C(=O)N[C@H]1CCNC(=O)[C@H]([C@@H](C)O)NC(=O)[C@H](CCN)NC(=O)[C@H](CCN)NC(=O)[C@H](CC(C)C)NC(=O)[C@@H](Cc2ccccc2)NC(=O)[C@H](CCN)NC1=O)[C@@H](C)O [Compound 37] (Octanoyl-[Dab]T[dS][Dab][Dab][dF]L[Dab][Dab]T; lactam 4-C) ?
RESULT: >32 µg/mL
